# credit: patent US20260374754A1

The reader will find reported EC50 values listed item by item below.
# System name: human activated kallikrein enzyme (Homo sapiens)
# Sequence (P03952 391-638 limits assumed): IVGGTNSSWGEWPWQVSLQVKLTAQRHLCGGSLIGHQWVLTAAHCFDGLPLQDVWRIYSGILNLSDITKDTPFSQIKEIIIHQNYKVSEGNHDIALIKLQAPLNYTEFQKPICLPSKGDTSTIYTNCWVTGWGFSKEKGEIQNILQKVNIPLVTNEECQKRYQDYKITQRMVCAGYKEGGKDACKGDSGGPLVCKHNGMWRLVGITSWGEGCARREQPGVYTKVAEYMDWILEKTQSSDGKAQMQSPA
# Sequence (P03952 20-390 partner limits assumed): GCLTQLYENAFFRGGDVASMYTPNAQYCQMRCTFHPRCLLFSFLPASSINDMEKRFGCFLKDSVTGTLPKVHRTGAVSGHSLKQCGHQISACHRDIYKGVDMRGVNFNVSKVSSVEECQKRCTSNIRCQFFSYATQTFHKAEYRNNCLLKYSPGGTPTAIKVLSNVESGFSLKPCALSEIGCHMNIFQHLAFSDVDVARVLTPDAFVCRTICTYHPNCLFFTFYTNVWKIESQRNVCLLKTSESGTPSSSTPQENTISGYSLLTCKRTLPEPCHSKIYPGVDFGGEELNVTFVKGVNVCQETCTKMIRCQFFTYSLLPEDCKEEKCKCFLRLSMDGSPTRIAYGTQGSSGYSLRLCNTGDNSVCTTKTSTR
# Assay explanation: Inhibition of human activated plasma kallikrein, fluorogenic PFR-AMC substrate, 500 pM enzyme format
# Type: biochemical
# Condition: 500 pM activated kallikrein; 300 μM PFR-AMC; 30 min preincubation; 10 min room temperature; pH 7.5; read-out: Primary Dose Response Assay: Average EC50

Consider the following illustrative entries.
Task item: Consider the compound shown here: Cc1cc2c(N)nccc2c(C)c1CNc1cc2nn(Cc3ccc(Cn4cccn4)cc3)cc2cn1 What is its recorded EC50?
Reply: 10 to 100 nM

Task item: Entry Cc1cc2c(N)nccc2c(C)c1CNC(=O)c1cnn(Cc2cn3cc(C4CC4)cc(Cc4nnco4)c3n2)c1 : reported EC50 = ?
Reply: < 1 nM

Task item: Record request: EC50 value, item Cc1cc2c(N)nccc2c(C)c1CNc1cc2c(cn1)ncn2Cc1nc2ccc(C3CC3)cn2n1
Reply: < 1 nM

Task item: Quick one: EC50 for Cc1ccc(Cn2cc(C(=O)NCc3c(C)cc4c(N)nccc4c3C)cn2)cc1C(F)(F)F ?
Reply: 1 to 10 nM

Task item: Could you tell me which EC50 is on file for Cc1cc2c(N)nccc2c(C)c1CNC(=O)c1cnn(Cc2ccc3cc(F)ccc3n2)c1 ?
Reply: 1 to 10 nM

Task item: Quick check: EC50 of Cc1cc2c(N)nccc2c(C)c1CNc1cc(OCc2cn3cc(C4CC4)ccc3n2)cnc1C(=O)O ?
Reply: > 1000 nM

Task item: Would you mind telling me what EC50 value was observed for Cc1cc2c(N)nccc2c(C)c1CNc1ncnc(NCc2ccc(Cn3cccn3)cc2)c1F ?
Reply: 10 to 100 nM

Task item: # EC50 lookup, item Cc1cc2c(N)nccc2c(C)c1CNC(=O)c1cnn(Cc2ccc(C3(C(=O)N4CCCC4)CC3)cc2)c1
Reply: < 1 nM

Others:
Task item: # input compound: Cc1cc2c(N)nccc2c(C)c1CNC(=O)c1cnn(Cc2cn3ccccc3n2)c1 ; wanted: its EC50
Reply: 1 to 10 nM

Task item: // returns reported EC50 for input Cc1cc2c(N)nccc2c(C)c1CNC(=O)c1cnn(Cc2ccc(Cc3ccccn3)cc2)c1
Reply: < 1 nM

Task item: Query (compound): Cc1cc2c(N)nccc2c(C)c1CNC(=O)c1cnn(Cc2ccc(CC(=O)N(C)C3CC3)cc2)c1 ; field requested: EC50
Reply: < 1 nM

Task item: Endpoint output: EC50 of Cc1cc2c(N)nccc2c(C)c1CNC(=O)c1cnn(Cc2ccc(CC(=O)N3CCOCC3)cc2)c1 . Value?
Reply: 1 to 10 nM

Task item: Recorded EC50 of Cc1ccc2cc(Cn3cc(C(=O)NCc4c(C)cc5c(N)nccc5c4C)cn3)ccc2n1 , please.
Reply: < 1 nM

Task item: Using the record for Cc1ncc2ccc(Cn3cc(C(=O)NCc4c(C)cc5c(N)nccc5c4C)cn3)cc2n1 , report its EC50.
Reply: 1 to 10 nM

Task item: Consider the compound shown here: Cc1cc2c(N)nccc2c(C)c1CNc1cc(OCc2cn3cc(C4CC4)cnc3n2)nc(C(=O)O)n1 What is its recorded EC50?
Reply: < 1 nM

Task item: Looking for the measured EC50 of Cc1cc2c(N)nccc2c(C)c1CNc1cc(NCc2cc3cc(C4CC4)ccn3n2)ncn1 , can you help?
Reply: < 1 nM
